Target: PI3-kinase p110-alpha/p85-alpha (Homo sapiens, UniProt P42336)
Sequence (P27986 whole entry): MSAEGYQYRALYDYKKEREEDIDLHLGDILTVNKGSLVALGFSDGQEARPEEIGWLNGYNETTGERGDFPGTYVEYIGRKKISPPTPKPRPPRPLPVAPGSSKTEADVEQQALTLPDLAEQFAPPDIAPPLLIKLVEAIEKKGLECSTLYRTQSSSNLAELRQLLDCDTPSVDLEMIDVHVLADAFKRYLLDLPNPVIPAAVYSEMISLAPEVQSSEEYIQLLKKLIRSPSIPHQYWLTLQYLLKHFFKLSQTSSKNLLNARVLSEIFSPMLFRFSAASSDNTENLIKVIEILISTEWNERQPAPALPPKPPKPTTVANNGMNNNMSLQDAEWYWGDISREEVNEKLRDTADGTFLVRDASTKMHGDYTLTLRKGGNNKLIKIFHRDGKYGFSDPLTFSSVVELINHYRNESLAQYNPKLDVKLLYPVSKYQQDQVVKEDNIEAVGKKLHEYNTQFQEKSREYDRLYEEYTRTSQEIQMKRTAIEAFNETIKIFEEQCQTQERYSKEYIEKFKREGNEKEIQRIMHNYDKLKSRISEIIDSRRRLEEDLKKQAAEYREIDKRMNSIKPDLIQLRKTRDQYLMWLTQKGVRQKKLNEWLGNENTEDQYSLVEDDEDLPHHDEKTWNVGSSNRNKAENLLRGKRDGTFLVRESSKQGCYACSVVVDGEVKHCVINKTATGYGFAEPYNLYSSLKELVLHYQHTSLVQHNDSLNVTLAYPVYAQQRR
Sequence (P42336 whole entry): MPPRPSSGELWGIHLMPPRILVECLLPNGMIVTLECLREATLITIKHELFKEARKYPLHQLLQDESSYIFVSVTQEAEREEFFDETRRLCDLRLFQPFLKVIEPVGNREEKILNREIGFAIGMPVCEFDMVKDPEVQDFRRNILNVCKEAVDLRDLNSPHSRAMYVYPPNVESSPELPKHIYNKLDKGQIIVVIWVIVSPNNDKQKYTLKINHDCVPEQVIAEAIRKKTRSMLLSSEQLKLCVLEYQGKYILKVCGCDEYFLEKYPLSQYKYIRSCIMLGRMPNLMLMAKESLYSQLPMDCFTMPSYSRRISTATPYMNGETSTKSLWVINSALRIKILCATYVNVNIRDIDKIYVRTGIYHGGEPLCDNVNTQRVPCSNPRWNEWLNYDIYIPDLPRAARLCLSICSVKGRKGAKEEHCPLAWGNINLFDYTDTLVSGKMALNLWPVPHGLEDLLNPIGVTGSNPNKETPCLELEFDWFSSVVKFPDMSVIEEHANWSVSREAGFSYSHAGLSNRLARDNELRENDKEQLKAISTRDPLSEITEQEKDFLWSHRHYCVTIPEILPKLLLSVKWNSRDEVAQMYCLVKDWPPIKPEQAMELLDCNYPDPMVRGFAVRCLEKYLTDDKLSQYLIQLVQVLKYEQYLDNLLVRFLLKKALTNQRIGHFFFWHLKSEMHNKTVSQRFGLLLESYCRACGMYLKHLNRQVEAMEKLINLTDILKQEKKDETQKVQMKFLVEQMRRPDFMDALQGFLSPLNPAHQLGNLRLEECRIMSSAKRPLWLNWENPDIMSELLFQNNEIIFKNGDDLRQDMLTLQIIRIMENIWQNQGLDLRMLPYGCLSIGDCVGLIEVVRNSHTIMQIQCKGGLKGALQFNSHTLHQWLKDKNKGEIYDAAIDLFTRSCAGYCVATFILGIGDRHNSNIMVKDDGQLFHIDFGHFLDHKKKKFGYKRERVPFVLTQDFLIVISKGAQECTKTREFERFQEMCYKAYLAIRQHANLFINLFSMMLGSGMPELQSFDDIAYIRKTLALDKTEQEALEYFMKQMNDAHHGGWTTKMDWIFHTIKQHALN
Assay: Inhibition of PI3K p110alpha/p85alpha-mediated AKT1 phosphorylation at Ser473 in human U2OS cells
pEC50: −log10 of the molar value.
endpoint name: pEC50

# annotated cases, reported pEC50 shown
CN(C)CCNC(=O)c1cn2cc(-c3cccc4[nH]ncc34)nc(N3CCOCC3)c2n1 : 6.01
CN(C)CCCNC(=O)c1cn2cc(-c3cccc4[nH]ncc34)nc(N3CCOCC3)c2n1 : 6.37
CS(=O)(=O)N1CCN(Cc2nc3c(N4CCOCC4)nc(-c4cccc5[nH]ncc45)cn3c2Br)CC1 : 6.68

a: CNC(=O)c1cn2cc(-c3cccc4[nH]ncc34)nc(N3CCOCC3)c2n1
b: CS(=O)(=O)N1CCN(Cc2cn3c(C#N)c(-c4cccc5[nH]ncc45)nc(N4CCOCC4)c3n2)CC1
I'd appreciate it if you could identify which of a and b has the greater pEC50. # respond with the chosen item's label
b

====

Target: Phosphatidylinositol 4,5-bisphosphate 3-kinase catalytic subunit gamma isoform (Homo sapiens)
Sequence (P48736 whole entry, canonical isoform): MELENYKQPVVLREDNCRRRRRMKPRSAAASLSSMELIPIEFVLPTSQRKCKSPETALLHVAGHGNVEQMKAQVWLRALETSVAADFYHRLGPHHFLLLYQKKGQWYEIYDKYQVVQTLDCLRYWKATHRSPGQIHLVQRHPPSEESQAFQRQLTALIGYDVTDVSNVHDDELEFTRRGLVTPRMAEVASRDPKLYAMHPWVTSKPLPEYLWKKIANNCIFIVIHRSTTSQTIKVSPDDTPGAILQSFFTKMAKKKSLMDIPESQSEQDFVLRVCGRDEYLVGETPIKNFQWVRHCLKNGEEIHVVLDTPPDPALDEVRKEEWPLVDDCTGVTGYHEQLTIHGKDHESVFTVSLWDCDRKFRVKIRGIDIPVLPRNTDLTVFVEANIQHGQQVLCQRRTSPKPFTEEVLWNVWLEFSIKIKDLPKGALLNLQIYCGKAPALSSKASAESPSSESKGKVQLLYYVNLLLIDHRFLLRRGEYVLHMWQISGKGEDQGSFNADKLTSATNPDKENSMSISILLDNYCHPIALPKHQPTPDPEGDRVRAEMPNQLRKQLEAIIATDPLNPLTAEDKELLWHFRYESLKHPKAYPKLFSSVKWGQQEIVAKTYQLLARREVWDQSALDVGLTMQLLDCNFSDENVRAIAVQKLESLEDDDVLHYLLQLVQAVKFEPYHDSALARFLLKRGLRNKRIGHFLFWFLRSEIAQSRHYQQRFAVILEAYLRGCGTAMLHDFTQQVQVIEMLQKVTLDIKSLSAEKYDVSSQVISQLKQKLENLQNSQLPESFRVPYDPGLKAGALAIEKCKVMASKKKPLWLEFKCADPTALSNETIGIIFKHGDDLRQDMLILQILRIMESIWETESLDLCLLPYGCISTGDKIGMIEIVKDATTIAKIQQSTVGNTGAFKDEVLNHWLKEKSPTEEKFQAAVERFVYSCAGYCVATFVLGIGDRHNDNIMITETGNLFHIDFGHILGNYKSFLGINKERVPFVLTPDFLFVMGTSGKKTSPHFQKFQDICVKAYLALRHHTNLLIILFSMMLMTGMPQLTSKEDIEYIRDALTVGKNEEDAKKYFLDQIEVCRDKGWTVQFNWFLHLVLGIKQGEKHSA
Assay: Inhibition of human PI3K p110gamma
Details: read-out: Ki(app)
endpoint name: Ki

# annotated cases, reported Ki shown
CS(=O)(=O)N1CCN(Cc2cn3c(C#N)c(-c4cccc5[nH]ncc45)nc(N4CCOCC4)c3n2)CC1 : > 500 nM
O=C(NCCN1CCOCC1)c1cn2cc(-c3cccc4[nH]ncc34)nc(N3CCOCC3)c2n1 : > 500 nM

Bench note: what Ki did CNC(=O)c1cn2cc(-c3cccc4[nH]ncc34)nc(N3CCOCC3)c2n1 show?
> 500 nM

====

Target: Serine/threonine-protein kinase PAK 1 (Homo sapiens)
Experiment: Inhibition of PAK1 at 5 to 10 uM
Overview of recorded inhibition for various molecules

CNC(=O)c1cn2cc(-c3cccc4[nH]ncc34)nc(N3CCOCC3)c2n1 : < 50%

Item: CS(=O)(=O)N1CCN(Cc2cn3c(Cl)c(-c4cccc5[nH]ncc45)nc(N4CCOCC4)c3n2)CC1 Test system: Serine/threonine-protein kinase PAK 1 (Homo sapiens) Read-out: inhibition Value: ?
< 50%

Same lookup for CS(=O)(=O)N1CCN(Cc2cn3cc(-c4cccc5[nH]ncc45)nc(N4CCOCC4)c3n2)CC1 , please.
< 50%

====

Overview of recorded inhibition for various compounds
Biological target: NUAK family SNF1-like kinase 1 (Homo sapiens) (UniProt O60285)
Sequence (whole entry): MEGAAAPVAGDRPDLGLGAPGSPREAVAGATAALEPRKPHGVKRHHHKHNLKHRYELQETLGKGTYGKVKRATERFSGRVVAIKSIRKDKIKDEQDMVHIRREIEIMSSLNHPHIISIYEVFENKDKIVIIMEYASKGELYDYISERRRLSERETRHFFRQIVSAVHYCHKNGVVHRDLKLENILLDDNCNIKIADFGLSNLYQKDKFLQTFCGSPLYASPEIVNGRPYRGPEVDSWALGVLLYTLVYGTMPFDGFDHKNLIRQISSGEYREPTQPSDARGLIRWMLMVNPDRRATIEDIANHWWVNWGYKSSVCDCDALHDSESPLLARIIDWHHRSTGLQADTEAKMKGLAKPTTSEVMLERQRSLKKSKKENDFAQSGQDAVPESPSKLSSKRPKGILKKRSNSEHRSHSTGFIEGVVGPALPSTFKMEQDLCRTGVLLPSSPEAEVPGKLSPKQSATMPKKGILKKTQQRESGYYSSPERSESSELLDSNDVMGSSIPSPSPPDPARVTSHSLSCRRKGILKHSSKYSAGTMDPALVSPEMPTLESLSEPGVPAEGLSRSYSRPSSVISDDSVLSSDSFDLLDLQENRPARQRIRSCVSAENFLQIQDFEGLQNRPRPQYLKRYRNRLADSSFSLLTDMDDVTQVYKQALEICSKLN
Assay: Inhibition of ARK5 at 5 to 10 uM

COCCCNC(=O)c1cn2cc(-c3cccc4[nH]ncc34)nc(N3CCOCC3)c2n1 : < 50%
CS(=O)(=O)N1CCN(Cc2cn3cc(-c4cccc5[nH]ncc45)nc(N4CCOCC4)c3n2)CC1 : < 50%

Please find the next compound below.
Item: CS(=O)(=O)N1CCN(Cc2cn3c(C#N)c(-c4cccc5[nH]ncc45)nc(N4CCOCC4)c3n2)CC1 Test system: NUAK family SNF1-like kinase 1 (Homo sapiens) (UniProt O60285) Read-out: inhibition Value: ?
< 50%
